# target: purified Ca/CaM from bovine brain (bovine, UniProt P62157 1-149)
# method.summary: fluorescence polarisation
assay.readout: Kd (nM)
A number alone suffices; assume nM.

Asked: Give the value of Kd reported for the following: ETWKAFLESVKKLGKG [PP-C peptide]
Given back: 190
